# System: LoVo
# MEASUREMENT_PROTOCOL: Inhibition of tyrosine phosphorylation in LoVo cells
# Assay type: functional, cell-based
# PARTICULARS: Homo sapiens
Catalogue of IC50 values

{"STRUCTURE_SMILES": "COc1cc2c(Nc3ccc(Sc4nccn4C)c(Cl)c3)c(C#N)cnc2cc1OCCCN1CCOCC1", "IC50": "> 1000 nM"}
{"STRUCTURE_SMILES": "COc1cc2c(Nc3ccc(Oc4ccccc4)cc3)c(C#N)cnc2cc1OCCCN1CCOCC1", "IC50": "> 1000 nM"}

* * *

# MEASUREMENT_TARGET: Dual specificity mitogen-activated protein kinase kinase 1 (Homo sapiens, UniProt Q02750)
# Sequence (Q02750 whole entry): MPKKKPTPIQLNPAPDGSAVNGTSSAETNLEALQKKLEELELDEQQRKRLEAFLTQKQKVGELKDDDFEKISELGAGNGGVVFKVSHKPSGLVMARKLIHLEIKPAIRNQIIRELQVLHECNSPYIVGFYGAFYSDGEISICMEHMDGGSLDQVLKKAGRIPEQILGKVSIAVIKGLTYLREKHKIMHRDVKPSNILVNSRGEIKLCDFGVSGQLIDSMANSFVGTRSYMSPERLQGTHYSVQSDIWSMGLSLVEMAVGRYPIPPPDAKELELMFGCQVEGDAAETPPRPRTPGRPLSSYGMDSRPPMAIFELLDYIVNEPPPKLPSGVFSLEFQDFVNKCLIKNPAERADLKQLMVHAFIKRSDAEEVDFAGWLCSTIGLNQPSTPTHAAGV
Examples of compounds with documented IC50 follow.
REPORTED_METRIC: IC50 (nM)

{"STRUCTURE_SMILES": "COc1cc2c(Nc3ccc(Cc4nccn4C)c(Cl)c3)c(C#N)cnc2cc1OCCCN1CCOCC1", "NUMERIC_RESULT": 212}
{"STRUCTURE_SMILES": "COc1cc2c(Nc3ccc(Sc4ccccn4)c(Cl)c3)c(C#N)cnc2cc1OCCCN1CCOCC1", "NUMERIC_RESULT": 8}
{"STRUCTURE_SMILES": "COc1cc2c(Nc3ccc(Sc4nccs4)c(Cl)c3)c(C#N)cnc2cc1OCCCN1CCOCC1", "NUMERIC_RESULT": 9}
{"STRUCTURE_SMILES": "CCOc1cc2ncc(C#N)c(Nc3ccc(Sc4nccn4C)c(Cl)c3)c2cc1OCC", "NUMERIC_RESULT": 10}
{"STRUCTURE_SMILES": "COc1cc2c(Nc3ccc(Sc4nccn4C)c(Cl)c3)c(C#N)cnc2cc1OCCCN1CC[S+]([O-])CC1", "NUMERIC_RESULT": 2}
{"STRUCTURE_SMILES": "COc1cc2c(Nc3ccc(Sc4nc(C)c(C)n4C)c(Cl)c3)c(C#N)cnc2cc1OCCCN1CCOCC1", "NUMERIC_RESULT": 2}
{"STRUCTURE_SMILES": "COc1cc2c(Nc3ccc(Sc4nccn4C)c(Cl)c3)c(C#N)cnc2cc1OCCCN1CCOCC1", "NUMERIC_RESULT": 2}
{"STRUCTURE_SMILES": "COc1cc2c(Nc3ccc(Sc4nccn4C)c(Cl)c3)c(C#N)cnc2cc1OCCCN1CCCC1", "NUMERIC_RESULT": 4}
{"STRUCTURE_SMILES": "COc1cc2c(Nc3ccc(Sc4ncc(C)n4C)c(Cl)c3)c(C#N)cnc2cc1OCCCN1CCOCC1", "NUMERIC_RESULT": 1}
{"STRUCTURE_SMILES": "COc1cc2c(Nc3ccc(Sc4nccn4C)c(Br)c3)c(C#N)cnc2cc1OCCCN1CCOCC1", "NUMERIC_RESULT": 2}
{"STRUCTURE_SMILES": "COc1cc2c(Nc3ccc(Oc4ccccc4)cc3)c(C#N)cnc2cc1OCCCN1CCOCC1", "NUMERIC_RESULT": 4}
